Here, each record is paired with measured kon data.
Biological target: T1, huCB1 nanodisc (CB1-ND) (human, UniProt P21554 99-414)
T1 construct: The His-tagged CB1 is embedded in a POPC lipid nanodisc with MSP1D1 scaffold protein (molar ratio 480:8:1); also called huCB1-ND; #CB1-008
T1 sequence (P21554 99-414 limits assumed): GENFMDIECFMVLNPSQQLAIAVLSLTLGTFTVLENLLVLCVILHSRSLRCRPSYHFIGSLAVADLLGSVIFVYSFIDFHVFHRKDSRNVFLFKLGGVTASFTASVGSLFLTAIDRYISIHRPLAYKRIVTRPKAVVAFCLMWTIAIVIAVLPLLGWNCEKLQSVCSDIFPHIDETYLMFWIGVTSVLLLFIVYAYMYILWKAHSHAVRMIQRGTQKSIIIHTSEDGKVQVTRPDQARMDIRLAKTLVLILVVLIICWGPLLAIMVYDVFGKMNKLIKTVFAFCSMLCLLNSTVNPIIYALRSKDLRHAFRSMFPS
Test: Octet BLI; antibody captured by anti-human Fc, CB1-nanodisc in solution, 1:1 model
Response body: numeric value in M⁻¹ s⁻¹, unit text excluded.

INSERT INTO measurements (binder, observable, value_reported) VALUES
  ('LIBC527997-1 (antibody, V domains shown, Expressed as IgG1 SEFL2 mAb) VH: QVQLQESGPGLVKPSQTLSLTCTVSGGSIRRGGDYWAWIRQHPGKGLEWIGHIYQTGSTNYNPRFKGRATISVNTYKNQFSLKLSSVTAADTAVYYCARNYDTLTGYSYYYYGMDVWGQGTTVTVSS VL: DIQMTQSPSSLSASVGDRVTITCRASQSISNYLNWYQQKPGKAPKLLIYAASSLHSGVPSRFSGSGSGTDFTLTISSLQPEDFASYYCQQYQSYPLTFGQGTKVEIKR', 'kon', 51800),
  ('LIBC527814-1 (antibody, V domains shown, Expressed as IgG1 SEFL2 mAb) VH: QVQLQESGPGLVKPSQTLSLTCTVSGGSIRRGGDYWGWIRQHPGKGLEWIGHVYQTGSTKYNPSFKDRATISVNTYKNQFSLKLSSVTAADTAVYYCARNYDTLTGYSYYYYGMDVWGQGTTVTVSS VL: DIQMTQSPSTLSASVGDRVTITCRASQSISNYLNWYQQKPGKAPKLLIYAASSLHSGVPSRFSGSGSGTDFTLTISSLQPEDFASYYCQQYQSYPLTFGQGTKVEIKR', 'kon', 56600),
  ('LIBC527919-1 (antibody, V domains shown, Expressed as IgG1 SEFL2 mAb) VH: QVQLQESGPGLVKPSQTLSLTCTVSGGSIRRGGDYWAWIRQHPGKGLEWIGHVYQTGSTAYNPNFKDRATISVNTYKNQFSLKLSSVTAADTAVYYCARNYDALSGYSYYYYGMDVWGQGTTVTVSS VL: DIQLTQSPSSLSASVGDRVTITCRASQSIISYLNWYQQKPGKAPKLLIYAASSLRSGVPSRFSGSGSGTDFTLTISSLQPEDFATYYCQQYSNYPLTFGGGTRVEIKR', 'kon', 56200);

As a next step, examine the binder that follows.
// kon lookup, binder = LIBC523661-1 (antibody, V domains shown, Expressed as IgG1 SEFL2 mAb) VH: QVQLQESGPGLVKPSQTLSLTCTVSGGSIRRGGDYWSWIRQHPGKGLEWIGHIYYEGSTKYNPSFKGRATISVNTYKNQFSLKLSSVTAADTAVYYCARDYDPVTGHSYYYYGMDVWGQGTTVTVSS VL: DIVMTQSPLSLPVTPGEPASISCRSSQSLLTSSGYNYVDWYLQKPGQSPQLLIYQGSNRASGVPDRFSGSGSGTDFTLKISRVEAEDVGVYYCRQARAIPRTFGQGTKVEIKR , result: 35700
